// GI50 lookup, one value per entry
- Test system: HT-29
- assay_info: NCI tumour cell line growth inhibition, 48 h
Calls of active or inactive are those of the source. Cut-off read from the data, not from the text of the source: active = GI50 up to about 1.1 µM and inactive = higher.
assay_metric: GI50

1. O=C(O)[C@@H]1C[C@@H](O)CN1	> 100 µM (inactive)
2. c1cc(-c2ccc(-c3ccc(-c4ccc(-c5cccc6nsnc56)[nH]4)c4nsnc34)[nH]2)c2nsnc2c1	> 100 µM (inactive)
3. CCN1N=CSC12C(=O)N(c1ccccc1)C(=O)N2c1ccccc1 (stereo not given)	> 100 µM (inactive)
4. O=C1c2ccccc2C(=O)N1NC1=NCCN1	> 100 µM (inactive)
5. CC1=C(C)C(=O)C2=C(OCCCO2)C1=O	20.8 µM (inactive)
6. COc1cc(Br)c(CC2=NCCc3cc(OC)c(OC)cc32)cc1OC	2.16 µM (inactive)
7. C[C@]12CC[C@H]3[C@@H](CC=C4C[C@@H](N5CCCC5)CC[C@@]43C)[C@@H]1C[C@H](N1CCCCC1)[C@@H]2O	14.3 µM (inactive)
8. CC(=O)NNc1nc(C)c(C(=O)NNC(=O)C(=O)Nc2ccccc2C#N)s1	> 100 µM (inactive)
9. O=C(N/N=C/c1cccc(O)c1O)N/N=C/c1cccc(O)c1O	44.8 µM (inactive)
10. CCN1C/C(=C\c2cc(OC)c(OC)c(OC)c2)C2=NN(c3ccccc3)C(c3cc(OC)c(OC)c(OC)c3)C2C1 (stereo not given)	2.07 µM (inactive)

----------
- Test system: HCC 2998
- assay_info: NCI tumour cell line growth inhibition, 48 h
Activity calls are given as the source filed them. No stated cut-off is given here; in the data, active = GI50 up to about 1.1 µM and inactive = higher.
// GI50 lookup, one value per entry
assay_metric: GI50

1) CC(=O)Oc1cc(C)c2c(c1OC(C)=O)CC1(O2)[C@@H](C)CCC2[C@@]3(C)CC[C@H](OC(C)=O)C(C)(C)C3CC[C@]21C (some centres undefined)	5.42 µM (inactive)
2) NC(=O)CCC(NCc1c2ccccc2[n+]([O-])c2ccccc12)C(=O)O (centres undefined)	> 100 µM (inactive)
3) COc1cc(-c2cc(OC)c(OC)c3ccc(Br)cc23)c2cc(Br)ccc2c1OC	36.1 µM (inactive)
4) COc1cccc2c(Nc3ccc(S(=O)(=O)Nc4ncccn4)cc3)c3ccc([N+](=O)[O-])cc3nc12	67 µM (inactive)
5) COc1ccc(C2c3cc4c(cc3OC(NNc3ccccc3)C2C)OCO4)cc1 (centres undefined)	1.82 µM (inactive)
6) COS(=O)(=O)OCCC(NC(=O)OCc1ccccc1)C(=O)OCc1ccccc1 (centres undefined)	66.4 µM (inactive)
7) CC(C)C(=O)/C=C/c1c(Cl)cccc1Cl	15.6 µM (inactive)
8) C[C@]12CCCC(=O)C1C[C@H](C(=O)O)CC2 (some centres undefined)	> 100 µM (inactive)
9) COc1cc2c(cc1O)CC[n+]1cc3c(OC)c(OC)ccc3cc1-2	> 100 µM (inactive)
10) Cc1ccc([S+]([O-])CC(CF)OCn2cc(C)c(=O)[nH]c2=O)cc1 (centres undefined)	> 100 µM (inactive)
11) O=C(Nc1ccc(C(F)(F)F)cc1[N+](=O)[O-])C(=O)C(C(=O)c1ccc2ccccc2c1)C1OC(=O)c2ccccc21 (centres undefined)	5.89 µM (inactive)
12) CCSC(SCC)=C1C(=O)N(c2ccccc2)N=C1C	14.5 µM (inactive)
13) N#C/C(=C(/S)Nc1ccccc1)c1nc2ccccc2[nH]1	> 10 µM (inactive)
14) C[C@]12CC[C@H]3[C@@H](CC=C4C[C@@H](N5CCCC5)CC[C@@]43C)[C@@H]1C[C@H](N1CCCCC1)[C@@H]2O	31.6 µM (inactive)
15) COC(=O)C(CC(=O)Nc1ccc(C)cc1)C(=O)C(=O)Nc1ccccc1C(C)C (centres undefined)	> 100 µM (inactive)
16) CCOC(=O)c1ccc(/N=N/N(C)C(=O)C(C)N)cc1 (centres undefined)	> 100 µM (inactive)
17) COc1ccc(-c2c(C#N)c(N)n(C3OC(CO)C(O)C(O)C3O)c(=S)c2C#N)cc1 (centres undefined)	> 100 µM (inactive)
18) Cc1cc(=O)oc2c(OS(C)(=O)=O)c(OS(C)(=O)=O)ccc12	> 100 µM (inactive)
19) CC1=C(CO)C(=O)O[C@@H]([C@@H](CO)[C@H]2CCC3C4C[C@@H](O)[C@@]5(O)CC=CC(=O)[C@]5(C)C4CC[C@@]32C)C1 (some centres undefined)	29.2 µM (inactive)

Values compiled from ChEMBL document CHEMBL1201862.
